The measurements presented in this section are drawn from ChEMBL document CHEMBL1135290.

# protocol summary: Inhibitory activity against Translocase I
pIC50: −log10 of the molar value.
readout kind: pIC50

Reference set (4 entries):
>>> measured_value("NC[C@H]1O[C@@H](O[C@@H](CNCCc2ccncc2)[C@@H]2C[C@@H](O)[C@H](n3ccc(=O)[nH]c3=O)O2)[C@H](O)[C@@H]1O")
5.34
>>> measured_value("NC[C@H]1O[C@@H](O[C@@H](CNCC2COc3ccccc3O2)[C@@H]2C[C@@H](O)[C@H](n3ccc(=O)[nH]c3=O)O2)[C@H](O)[C@@H]1O (stereo partly specified)")
5.55
>>> measured_value("CCN(CC)CCN1CCN(C[C@H](O[C@@H]2O[C@H](CN)[C@@H](O)[C@H]2O)[C@@H]2C[C@@H](O)[C@H](n3ccc(=O)[nH]c3=O)O2)CC1")
5.74
>>> measured_value("CN1CCCC1CNC[C@H](O[C@@H]1O[C@H](CN)[C@@H](O)[C@H]1O)[C@@H]1C[C@@H](O)[C@H](n2ccc(=O)[nH]c2=O)O1 (stereo partly specified)")
5.89

1: CSCC[C@H](NC(=O)N[C@@H](Cc1cccc(O)c1)C(=O)O)C(=O)NC(C(=O)N/C=C1\C[C@@H](O)[C@H](n2ccc(=O)[nH]c2=O)O1)[C@H](C)N(C)C(=O)[C@@H](N)Cc1cccc(O)c1 (stereo partly specified)
2: COC(=O)C1CCN(C[C@H](O[C@@H]2O[C@H](CN)[C@@H](O)[C@H]2O)[C@@H]2C[C@@H](O)[C@H](n3ccc(=O)[nH]c3=O)O2)CC1
Query string: Which is greater in pIC50, the first item 1 or the second item 2 ? State the label of the item chosen.
Result string: 1

P: NC[C@H]1O[C@@H](O[C@@H](CNCCc2cccc(C(F)(F)F)c2)[C@@H]2C[C@@H](O)[C@H](n3ccc(=O)[nH]c3=O)O2)[C@H](O)[C@@H]1O
Q: CCCCCCCCCCCCCCNC[C@H](O[C@@H]1O[C@H](CN)[C@@H](O)[C@H]1O)[C@@H]1C[C@@H](O)[C@H](n2ccc(=O)[nH]c2=O)O1.O=C(O)C(F)(F)F
Query string: Given the two records P and Q , choose the one whose pIC50 value is lower. State the label of the item chosen.
Result string: Q
(Q: 6.23, P: 6.66)

1: NC[C@H]1O[C@@H](O[C@@H](CNC(=O)Nc2ccc(C3CCCCC3)cc2)[C@@H]2C[C@@H](O)[C@H](n3ccc(=O)[nH]c3=O)O2)[C@H](O)[C@@H]1O
2: NC[C@H]1O[C@@H](O[C@@H](CN2CCC(Cc3ccccc3)CC2)[C@@H]2C[C@@H](O)[C@H](n3ccc(=O)[nH]c3=O)O2)[C@H](O)[C@@H]1O
Query string: Given the two records 1 and 2 , choose the one whose pIC50 value is lower. State the label of the item chosen.
Result string: 2
(2: 6.46, 1: 6.80)

====

# protocol summary: Inhibitory activity against Translocase I
readout kind: IC50 (µM)

Reference set (4 entries):
>>> measured_value("NC[C@H]1O[C@@H](O[C@@H](CNCCc2c[nH]c3ccccc23)[C@@H]2C[C@@H](O)[C@H](n3ccc(=O)[nH]c3=O)O2)[C@H](O)[C@@H]1O")
2.9
>>> measured_value("NC[C@H]1O[C@@H](O[C@@H](CNC(=O)c2cccc(Oc3ccccc3)c2)[C@@H]2C[C@@H](O)[C@H](n3ccc(=O)[nH]c3=O)O2)[C@H](O)[C@@H]1O")
0.44
>>> measured_value("CCCCCCCNC[C@H](O[C@@H]1O[C@H](CN)[C@@H](O)[C@H]1O)[C@@H]1C[C@@H](O)[C@H](n2ccc(=O)[nH]c2=O)O1")
0.74
>>> measured_value("NC[C@H]1O[C@@H](O[C@@H](CNC(=O)c2ccc(OCc3ccccc3)cc2)[C@@H]2C[C@@H](O)[C@H](n3ccc(=O)[nH]c3=O)O2)[C@H](O)[C@@H]1O")
0.32

A: NC[C@H]1O[C@@H](OC[C@H]2O[C@@H](n3ccc(=O)[nH]c3=O)[C@H](O)[C@@H]2O)[C@H](O)[C@@H]1O
B: NC[C@H]1O[C@@H](O[C@@H](CO)[C@H]2O[C@@H](n3ccc(=O)[nH]c3=O)[C@H](O)[C@@H]2O)[C@H](O)[C@@H]1O
Query string: Given the two records A and B , choose the one whose IC50 value is lower. State the label of the item chosen.
Result string: B
